Collected Displacement of Propidium from the EeAChE PAS values appear next to each entry.
# TARGET_DESC: EeAChE PAS (Electrophorus electricus)
# Sequence (O42275 24-633): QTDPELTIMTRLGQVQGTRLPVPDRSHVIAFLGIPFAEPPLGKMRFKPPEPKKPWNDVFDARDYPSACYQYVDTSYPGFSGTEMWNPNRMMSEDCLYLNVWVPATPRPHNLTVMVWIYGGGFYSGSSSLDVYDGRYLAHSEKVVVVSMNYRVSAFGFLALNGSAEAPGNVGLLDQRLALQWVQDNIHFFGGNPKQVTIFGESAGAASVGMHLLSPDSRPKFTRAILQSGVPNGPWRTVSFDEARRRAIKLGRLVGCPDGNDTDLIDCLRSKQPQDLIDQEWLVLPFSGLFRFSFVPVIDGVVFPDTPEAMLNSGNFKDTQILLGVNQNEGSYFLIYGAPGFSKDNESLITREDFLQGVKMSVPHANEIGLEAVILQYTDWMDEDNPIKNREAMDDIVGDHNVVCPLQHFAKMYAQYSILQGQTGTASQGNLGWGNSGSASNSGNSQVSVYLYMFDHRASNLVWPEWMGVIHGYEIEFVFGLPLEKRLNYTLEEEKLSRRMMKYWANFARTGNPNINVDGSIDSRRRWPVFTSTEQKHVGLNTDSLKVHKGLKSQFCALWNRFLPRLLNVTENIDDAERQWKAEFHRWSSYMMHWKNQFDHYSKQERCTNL
# TEST_METHOD_NOTES: Propidium iodide displacement from the PAS of EeAChE (fluorescence)
# Assay type: binding
# EXPERIMENTAL_SETUP: compound concentration 20 µM; mean ± SEM, n = 3
# Method: EeAChE was used owing to its high degree of purification, high activity, and lower cost than human AChE (hAChE). To determine the degree of displacement (% displacement) of propidium from the PAS of AChE, EeAChE (final concentration, 7 μM) was incubated with the test compound at a concentration of 20 μM in 1 mM Tris-HCl buffer pH 8.0, 25 °C, for 15 min. […]
Write down the numeric answer in % and omit the unit.

Field: example entries. Status: answers known.
{"SMILES_TEXT": "Cc1ccc(S(=O)(=O)NCCCNc2c3c(nc4ccccc24)CCC3)cc1", "TARGET_DESC": "EeAChE PAS (Electrophorus electricus)", "UNITS_OF_MEASURE": "%", "NUMERIC_READOUT": 12.3}
{"SMILES_TEXT": "Cc1ccc(S(=O)(=O)NCCCCNc2c3c(nc4ccccc24)CCCC3)cc1", "TARGET_DESC": "EeAChE PAS (Electrophorus electricus)", "UNITS_OF_MEASURE": "%", "NUMERIC_READOUT": 14.8}
{"SMILES_TEXT": "Cc1ccc(S(=O)(=O)NCCCCCNc2c3c(nc4ccccc24)CCC3)cc1", "TARGET_DESC": "EeAChE PAS (Electrophorus electricus)", "UNITS_OF_MEASURE": "%", "NUMERIC_READOUT": 15.1}
{"SMILES_TEXT": "Cc1ccc(S(=O)(=O)NCCCNc2c3c(nc4ccccc24)CCCC3)cc1", "TARGET_DESC": "EeAChE PAS (Electrophorus electricus)", "UNITS_OF_MEASURE": "%", "NUMERIC_READOUT": 9.8}
{"SMILES_TEXT": "Cc1ccc(S(=O)(=O)NCCCCCCNc2c3c(nc4ccccc24)CCC3)cc1", "TARGET_DESC": "EeAChE PAS (Electrophorus electricus)", "UNITS_OF_MEASURE": "%", "NUMERIC_READOUT": 15.9}
{"SMILES_TEXT": "Cc1ccc(S(=O)(=O)NCCCNc2c3c(nc4ccccc24)CCCCC3)cc1", "TARGET_DESC": "EeAChE PAS (Electrophorus electricus)", "UNITS_OF_MEASURE": "%", "NUMERIC_READOUT": 13.9}

Query: Reported Displacement of Propidium from the EeAChE PAS, compound Cc1ccc(S(=O)(=O)NCCNc2c3c(nc4ccccc24)CCC3)cc1 : ____
Response: 9.2

Query: Okay, and Cc1ccc(S(=O)(=O)NCCCCCNc2c3c(nc4ccccc24)CCCC3)cc1 ?
Response: 17.5

Query: Cc1ccc(S(=O)(=O)NCCCNc2c3c(nc4ccccc24)CCCCCC3)cc1 , same question.
Response: 15.9

Query: Would you kindly repeat that for Cc1ccc(S(=O)(=O)NCCCCNc2c3c(nc4ccccc24)CCC3)cc1 ?
Response: 14.9

Query: Item: Cc1ccc(S(=O)(=O)NCCCCNc2c3c(nc4ccccc24)CCCCC3)cc1
Response: 16.1
